In this section we review reported protein stability index values for a set of variants.
B1: SLC35F2 (parent)
chain: QYLAERYKVNTPMLQSFINYCLLF

Variants of: B1
experimental-details: protein stability index of a GFP-peptide fusion (GPS, HEK-293T) (PSI 1-6); higher = more stable;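 further: lentivirally expressed fusions sorted by FACS into six bins by GFP to DsRed ratio, PSI derived from sequencing read proportions per bin multiplied by bin number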
condition-info: c terminus: a fixed tail appended
assay-endpoint: protein stability index

>>> print(df.to_string())
                    sequence  reported_measurement
 0  QYLAERYKVFTPMLQSFINYCLLF                  2.88
 1  QYLAERLKVNTPMLQSFINYCLLF                  2.35
 2  QFLAERYKVNTPMLQSFINYCLLF                  3.47
 3  QYLAERYKVNQPMLQSFINYCLLF                  2.96
 4  QHLAERYKVNTPMLQSFINYCLLF                  1.89
 5  QYLAERYKVNTPMLQSTINYCLLF                  2.45
 6  QYLAERYKVNSPMLQSFINYCLLF                  2.65
 7  QYLAERYKVNTPMLQSFINYCLLR                  2.88
 8  QYLAERYKMNTPMLQSFINYCLLF                  2.54
 9  QYLAERYWVNTPMLQSFINYCLLF                  2.55
10  QYLAERYKVNTPMLQQFINYCLLF                  1.65
11  QYLAESYKVNTPMLQSFINYCLLF                  2.94
12  QCLAERYKVNTPMLQSFINYCLLF                  2.17
13  QYLMERYKVNTPMLQSFINYCLLF                   3.1
14  QYLAERYKVNTTMLQSFINYCLLF                  2.54
15  QYLAERYKVNTPMLQSFIHYCLLF                  2.18
16  QYLAERYKVRTPMLQSFINYCLLF                  1.85
17  QYLAERYKVNTPMLQSFINVCLLF                  2.78
18  QYLAERYKVLTPMLQSFINYCLLF                  3.17
19  QYLAQRYKVNTPMLQSFINYCLLF                  2.72
20  QYLAERYKVNTPMLQSFIPYCLLF                   2.7
21  QYLAERYKVNTPMLQSFINYCLKF                  1.64
